biological target: bombesin receptor (Mus musculus, UniProt P21729)
Sequence (P21729 whole entry): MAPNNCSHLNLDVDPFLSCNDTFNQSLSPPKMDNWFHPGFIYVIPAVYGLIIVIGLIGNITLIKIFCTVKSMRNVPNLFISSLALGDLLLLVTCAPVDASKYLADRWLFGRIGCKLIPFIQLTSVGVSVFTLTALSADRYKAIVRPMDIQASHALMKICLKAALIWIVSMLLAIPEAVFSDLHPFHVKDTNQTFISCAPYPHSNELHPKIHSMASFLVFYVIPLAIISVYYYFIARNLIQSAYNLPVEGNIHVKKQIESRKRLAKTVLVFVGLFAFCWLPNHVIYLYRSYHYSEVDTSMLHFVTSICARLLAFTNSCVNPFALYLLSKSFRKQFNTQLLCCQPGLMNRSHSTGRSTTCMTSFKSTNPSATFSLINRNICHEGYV
Non-standard residues stand in square brackets, D forms with d. Residues, ends and D or L forms follow the SMILES beside them. *: point of attachment. Palmitoyl = CCCCCCCCCCCCCCCC(=O)*
Property: pKd
A value of pKd is the negative decimal logarithm of a concentration given in moles per litre.

So for CCCCCCCCCCCCCCCC(=O)N[C@@H](CCC(N)=O)C(=O)N[C@@H](Cc1c[nH]c2ccccc12)C(=O)N[C@@H](C)C(=O)N[C@H](C(=O)N[C@H](C)C(=O)N[C@@H](Cc1c[nH]cn1)C(=O)N[C@@H](CC(C)C)C(N)=O)C(C)C [Example 3] (Palmitoyl-QWAV[dA]HL-NH2) , the logged pKd turned out to be 6.46
